Test system: LG0567-F671-PDC KRAS tumor spheroid viability;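 further: drug exposure lasted seven days after spheroids formed for three days; 100% = DMSO vehicle control viability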
assay.protocol: Anticancer human tumor LG0567-F671-PDC patient-derived lung adenocarcinoma cell line growth inhibition [KRAS2]
assay.setup: second compound 0.316 µM; first compound 0.01 µM; stronger effect = lower value; spheroids with HUVEC and MSC
quantity.name: viability, T/C (%)
Numbers only here, please. The scale is %.

// below: answered compounds
{"compound": "CC1COCCN1c1cc(-c2ccnn2C)c2ccnc(-c3ccn[nH]3)c2n1 (stereo not given) + CC1OCC2(CCN(c3cnc(Sc4ccnc(N)c4Cl)c(N)n3)CC2)C1N", "viability, T/C [%]": 39}
{"compound": "CC1COCCN1c1cc(-c2ccnn2C)c2ccnc(-c3ccn[nH]3)c2n1 (stereo not given) + C=CC(=O)N1CCN(c2nc(OCC3CCCN3C)nc3c2CCN(c2cccc4cccc(C)c24)C3)CC1CC#N", "viability, T/C [%]": 24.7}
{"compound": "Cn1ncnc1[C@H]1c2n[nH]c(=O)c3cc(F)cc(c23)N[C@@H]1c1ccc(F)cc1 + COc1cc2nc(C)nc(NC(C)c3cc(N)cc(C(F)(F)F)c3)c2cc1OC1CCOC1", "viability, T/C [%]": 66.3}

# return viability, T/C of CN(C)C/C=C/C(=O)Nc1cc2c(Nc3ccc(F)c(Cl)c3)ncnc2cc1O[C@H]1CCOC1 + C=CC(=O)N1CCN(c2nc(=O)n(-c3c(C)ccnc3C(C)C)c3nc(-c4c(O)cccc4F)c(F)cc23)C(C)C1 (system: LG0567-F671-PDC KRAS tumor spheroid viability);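 further: drug exposure lasted seven days after spheroids formed for three days; 100% = DMSO vehicle control viability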
21.6

Param request: viability, T/C | system LG0567-F671-PDC KRAS tumor spheroid viability | item CN(C)C/C=C/C(=O)Nc1cc2c(Nc3ccc(F)c(Cl)c3)ncnc2cc1O[C@H]1CCOC1 + CNCc1ccccc1-c1csc(C(C)Nc2nc(C)nc3cc(OC)c(OC)cc23)c1;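 further: drug exposure lasted seven days after spheroids formed for three days; 100% = DMSO vehicle control viability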
52
